melting point overview

Answered cases to consult:
compound	recordedMeasurement
CNC(=O)COC(=O)N1CCN(c2ccc(-c3cccc(C(F)(F)F)c3)cn2)CC1 [Compound 76]	158 to 160 °C
NC(=O)COC(=O)N1CCN(c2ccc(-c3cccc(C(F)(F)F)c3)nc2)CC1 [Compound 86]	155 to 157 °C
CNC(=O)COC(=O)N1CCN(c2ccc(CC(C)C)cn2)CC1 [Compound 63]	127 to 129 °C
CNC(=O)COC(=O)N1CCN(c2ccc(-c3cccc(C(F)(F)F)c3)nn2)CC1 [Compound 87]	151 to 153 °C
CNC(=O)COC(=O)N1CCCN(c2ccc(-c3ccc(OC(F)(F)F)cc3)cn2)CC1 [Compound 103]	191 to 193 °C

**Query** Which value of melting point has been reported for Cc1ccc(-c2ccc(Cl)cc2)cn1 [Compound 75] in the records?
**Result** 203 to 206 °C
